The following molecules are listed with their measured pIC50 values.
biological target: KRAS G12V (Homo sapiens, UniProt P01116, G12V); assay: GDP-GTP exchange assay (bodipy-GDP/GppNHp, SOS1), KRAS G12V; format: biochemical; conditions: Table H, column G12V; for compounds isolated as several atropisomers/diastereoisomers the value for the most potent isomer is quoted; read-out: KRAS G12V exchange assay IC50
Sequence (P01116 1-188 isoform P01116-2 G12V): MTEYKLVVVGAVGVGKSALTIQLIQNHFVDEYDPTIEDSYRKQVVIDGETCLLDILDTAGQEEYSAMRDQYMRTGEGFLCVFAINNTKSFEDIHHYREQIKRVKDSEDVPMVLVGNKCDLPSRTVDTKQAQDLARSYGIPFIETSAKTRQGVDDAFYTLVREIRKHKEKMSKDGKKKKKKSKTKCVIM
pIC50: −log10 of the molar value.

Sample records with pIC50:
Cc1nc2c(F)c(-c3cccc(Cl)c3Cl)c(CCC#N)cc2c2c1cc([C@H]1C[C@H](OC3(C)CCC3)CN1C(=O)C1CC1)n2[C@H]1[C@H]2CN[C@@H]1C2 = ≥ 7.00
Cc1nc2c(F)c(-c3cccc(Cl)c3Cl)c(CCC#N)cc2c2c1cc([C@H]1C[C@H](Oc3ccc(N4CCOCC4)nc3)CN1C(=O)C1CC1)n2[C@H]1[C@H]2CN[C@@H]1C2 = ≥ 7.00

Can you share its pIC50? I mean this molecule: Cc1nc2c(F)c(-c3cccc(Cl)c3Cl)c(CCC#N)cc2c2c1cc([C@H]1C[C@H](Oc3cccc(C#N)c3)CN1C(=O)C1CC1)n2[C@H]1[C@H]2CN[C@@H]1C2 ≥ 7.00

====

target: KRAS G12V (Homo sapiens, UniProt P01116, G12V); assay: GDP-GTP exchange assay (bodipy-GDP/GppNHp, SOS1), KRAS G12V; format: biochemical; settings: KRAS G12V mutant; value for the most potent isomer quoted for certain compounds; read-out: G12V (KRAS G12V exchange assay IC50)
Measured IC50 accompanies every entry in the list below.

Check out these entries, answers already filled in.
Cc1nc2c(F)c(-c3cccc(Cl)c3Cl)c(CCC#N)cc2c2c1cc([C@H]1C[C@H](n3ccc(C(F)F)n3)CN1C(=O)C1CC1)n2[C@H]1[C@H]2CN[C@@H]1C2 = ≤ 100 nM
Cc1nc2c(F)c(-c3cccc(Cl)c3Cl)c(CCC#N)cc2c2c1cc([C@H]1C[C@H](OCc3ccc(Cl)cc3C#N)CN1C(=O)C1CC1)n2[C@H]1[C@H]2CN[C@@H]1C2 = ≤ 100 nM

// switching to the query molecule
# query: IC50 of entry Cc1nc2c(F)c(-c3cccc(Cl)c3Cl)c(CCC#N)cc2c2c1cc([C@H]1C[C@H](Oc3cnn(C(C)C)c3)CN1C(=O)C1CC1)n2[C@H]1[C@H]2CN[C@@H]1C2 ≤ 100 nM

====

target: KRAS G12V (Homo sapiens, UniProt P01116, G12V); assay: GDP-GTP exchange assay (bodipy-GDP/GppNHp, SOS1), KRAS G12V; type: biochemical; conditions: KRAS G12V mutant; value for the most potent isomer quoted for certain compounds; read-out: G12V (KRAS G12V exchange assay IC50)
Entries and their IC50 values follow.

These recorded examples may help you get a feel for the data.
Cc1nc2c(F)c(-c3cccc(Cl)c3Cl)c(CCC#N)cc2c2c1cc([C@H]1C[C@H](OCC3(C)CC(F)(F)C3)CN1C(=O)C1CC1)n2[C@H]1[C@H]2CN[C@@H]1C2 = ≤ 100 nM
COc1cccc(CO[C@H]2C[C@H](c3cc4c(C)nc5c(F)c(-c6cccc(Cl)c6Cl)c(CCC#N)cc5c4n3[C@H]3[C@H]4CN[C@@H]3C4)N(C(=O)C3CC3)C2)n1 = ≤ 100 nM

Here is another compound to look at.
What value of IC50 on KRAS G12V (Homo sapiens, UniProt P01116, G12V) does Cc1nc2c(F)c(-c3cccc(Cl)c3Cl)c(CCC#N)cc2c2c1cc([C@H]1C[C@H](Oc3cncnc3)CN1C(=O)C1CC1)n2[C@H]1[C@H]2CN[C@@H]1C2 have? ≤ 100 nM
